Assayed target: human CD40 on cells (human, UniProt P25942 21-277)
Sequence (P25942 21-277): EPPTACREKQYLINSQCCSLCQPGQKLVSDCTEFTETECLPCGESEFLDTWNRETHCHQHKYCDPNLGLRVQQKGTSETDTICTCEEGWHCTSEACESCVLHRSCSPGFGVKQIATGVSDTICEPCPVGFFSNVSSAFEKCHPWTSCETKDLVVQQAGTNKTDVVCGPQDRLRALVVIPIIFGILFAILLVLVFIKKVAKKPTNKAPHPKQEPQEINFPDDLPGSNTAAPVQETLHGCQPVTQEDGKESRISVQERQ
Test protocol: cell-based or functional assay
Reported EC50 of CD86 up-regulation on monocyte-derived dendritic cells (FACS) values are given for each entry in this list.
Could you give me the number in µg/mL? Just the number is fine.

Antibody clone H11 (antibody, human IgG1, lambda, V domains shown, also called H11 ANTI-CD40 ANTIBODY) VH: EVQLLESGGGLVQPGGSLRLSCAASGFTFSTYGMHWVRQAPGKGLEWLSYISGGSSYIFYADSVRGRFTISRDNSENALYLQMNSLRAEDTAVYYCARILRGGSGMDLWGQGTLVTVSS VL: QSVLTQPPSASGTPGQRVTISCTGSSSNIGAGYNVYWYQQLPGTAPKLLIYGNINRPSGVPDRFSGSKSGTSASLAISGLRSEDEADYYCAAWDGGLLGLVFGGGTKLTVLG    0.14

Data request: # EC50 of CD86 up-regulation on monocyte-derived dendritic cells (FACS) lookup, item Antibody clone A4 (antibody, human IgG1, lambda, V domains shown, Tested as purified antibody; full chains are assembled here from VH/VL plus these; also called A4 ANTI-CD40 ANTIBODY) VH: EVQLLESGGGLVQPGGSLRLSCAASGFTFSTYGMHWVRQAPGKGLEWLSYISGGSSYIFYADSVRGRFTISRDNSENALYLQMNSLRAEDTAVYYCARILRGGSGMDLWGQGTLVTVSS VL: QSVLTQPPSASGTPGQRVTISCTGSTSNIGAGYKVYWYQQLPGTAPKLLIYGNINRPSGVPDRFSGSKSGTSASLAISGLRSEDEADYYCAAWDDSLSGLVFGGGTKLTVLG
Data returned: 0.13

Data request: # get_value(readout='EC50 of CD86 up-regulation on monocyte-derived dendritic cells (FACS)', item= Antibody B44 (antibody, V domains shown, Parent agonistic anti-CD40 antibody from the n-CoDeR library; Run alongside the IgG clones as 'B44 antibody' and detected with anti-human Ig on RAMOS cells; also called B44 antibody; original anti-CD40 antibody) VH: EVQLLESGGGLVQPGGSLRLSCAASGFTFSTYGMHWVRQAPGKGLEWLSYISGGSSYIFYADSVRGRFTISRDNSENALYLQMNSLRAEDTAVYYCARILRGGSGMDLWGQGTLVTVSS VL: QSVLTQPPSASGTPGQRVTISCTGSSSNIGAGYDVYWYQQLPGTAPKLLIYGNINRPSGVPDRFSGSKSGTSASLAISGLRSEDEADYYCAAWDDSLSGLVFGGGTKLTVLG )
Data returned: 0.37

Data request: Any idea what its EC50 of CD86 up-regulation on monocyte-derived dendritic cells (FACS) is? The binder is Antibody clone C4 (antibody, human IgG1, lambda, V domains shown, Same VL changes as A4; VH carries S63T; also called C4 ANTI-CD40 ANTIBODY) VH: EVQLLESGGGLVQPGGSLRLSCAASGFTFSTYGMHWVRQAPGKGLEWLSYISGGSSYIFYADTVRGRFTISRDNSENALYLQMNSLRAEDTAVYYCARILRGGSGMDLWGQGTLVTVSS VL: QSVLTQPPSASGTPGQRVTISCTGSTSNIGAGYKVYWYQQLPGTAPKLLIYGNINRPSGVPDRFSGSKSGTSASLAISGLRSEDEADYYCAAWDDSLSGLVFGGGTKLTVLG
Data returned: 0.11

These measurements were taken from patent US20140348836A1.
